- assayProtocol: qHTS for induction of synthetic lethality in tumor cells producing 2HG: qHTS for the HT-1080-IDH1KD cell line
- testParameters: HT-1080 IDH1 knockdown viability, ATP luminescence, 48 h; series mostly up to 46.1 µM
Screen size: about 360,000 compounds; about 7,500 (2.1%) were called active. Another 8% or so got no clear call; they are omitted. The call rests on the fitted dose curve; in most records, active means well fitted cell-killing curve with a large enough effect; inconclusive means small, poorly fitted or top-dose-only effect, or effect the other way, or another doubt; inactive means no such curve, though single readings can be large or run the other way. This excerpt belongs to a sample that is enriched for actives.
In this exercise, the only acceptable responses are Yes for active, No for inactive

Lab log entry: CCC1NC(=O)c2cccnc2-n2c1nc1ccc(C)cc1c2=O (stereo not given) — outcome as called in the assay?
No

Lab log entry: COc1ccc(C(C(O)C(=O)c2c[nH]c3ccccc23)N2CCN(c3ccccc3)CC2)cc1 (stereo not given) — outcome as called in the assay?
No

Lab log entry: `Cc1ccc2nc(-c3ccccn3)cc(C(=O)Nc3ccc4c(c3)OCO4)c2c1` — outcome as called in the assay?
No

Lab log entry: `CCc1nc2ccc(C(=O)NCCNC(C)=O)cn2c1N(CC)Cc1cccc(Br)c1` — outcome as called in the assay?
No

Lab log entry: `Cc1ccc2nc(-c3ccncc3)cc(C(=O)Nc3ccc4c(c3)OCCO4)c2c1` — outcome as called in the assay?
Yes

Lab log entry: OCCC#Cc1ccc(N2C(c3ccsc3)=Cc3ccc(F)cc3C2c2c[nH]c3ccccc23)cc1 (stereo not given) — outcome as called in the assay?
Yes

Lab log entry: `COc1ccc(/C=C(\NC(=O)c2ccc(OC)c(OC)c2)C(=O)NCCc2c[nH]c3ccccc23)cc1` — outcome as called in the assay?
No

Lab log entry: `COc1ccc(/C=C(\C#N)c2c[nH]c3ccccc23)cc1` — outcome as called in the assay?
Yes

Lab log entry: `CCOc1ncccc1C(=O)Nc1ccc2c(c1)OCCO2` — outcome as called in the assay?
No

Lab log entry: Cc1cccc(-c2cnc(C(O)c3ccc4ccccc4c3)[nH]2)c1 (stereo not given) — outcome as called in the assay?
No

====

- assayProtocol: qHTS for induction of synthetic lethality in tumor cells producing 2HG: qHTS for the HT-1080-IDH1KD cell line
- testParameters: HT-1080 IDH1 knockdown viability, ATP luminescence, 48 h; series mostly up to 46.1 µM
Screen size: about 360,000 compounds; about 7,500 (2.1%) were called active. Inconclusive results (about 8%) are left out. Calls follow the shape of the dose curve; as a rule, active = well fitted cell-killing curve with a large enough effect; inconclusive = small, poorly fitted or top-dose-only effect, or effect the other way, or another doubt; inactive = no such curve, though single readings can be large or run the other way. Many of the other results were omitted from the sample, so actives are more common in it than they were.
In this exercise, the only acceptable responses are active, inactive

Lab log entry: `CSc1ncnc2c1ncn2CCCNCC1CCCCC1` — outcome as called in the assay?
inactive

Lab log entry: `Cc1c(CN2CCC(CO)(CCOc3ccccc3)CC2)[nH]c2ccc(Cl)cc12` — outcome as called in the assay?
active

Lab log entry: `Cc1ccc(-c2c(N)nc3ncccn23)cc1` — outcome as called in the assay?
inactive

Lab log entry: Cc1ccccc1N1C(=O)C2ON(c3ccccc3)C(c3ccncc3)C2C1=O (stereo unspecified) — outcome as called in the assay?
inactive

Lab log entry: O=S1(=O)CC(N2CCSCC2)CN1Cc1cn(Cc2cccc(Cl)c2)nn1 (stereo unspecified) — outcome as called in the assay?
inactive

Lab log entry: `COc1ccc(Cn2c(=O)[nH]c3cc(C(=O)N4CCN(C(=O)c5ccco5)CC4)ccc3c2=O)cc1` — outcome as called in the assay?
inactive

Lab log entry: `CCOC(=O)c1c(NC(=O)COC(=O)c2ccc(S(=O)(=O)C(F)F)cc2)sc(C(=O)N(C)C)c1C` — outcome as called in the assay?
inactive

Lab log entry: NC(Cc1ccc(F)cc1)c1csc(Nc2nncc3ccccc23)n1 (stereo unspecified) — outcome as called in the assay?
active

Lab log entry: `CC[C@H]1CN2CCc3cc(OC)c(OC)cc3[C@@H]2C[C@@H]1C[C@H]1NCCc2cc(OC)c(OC)cc21` — outcome as called in the assay?
active

Lab log entry: `CC(=O)Nc1ccc(NC(=O)COC(=O)c2ccccc2C(=O)c2ccccc2)cc1` — outcome as called in the assay?
inactive

Lab log entry: `C[C@H]1CN([C@@H](C)CO)C(=O)c2cc(Br)cnc2O[C@H]1CN(C)S(=O)(=O)c1cccs1` — outcome as called in the assay?
inactive

Lab log entry: `CCOC(=O)C1(CCOc2ccccc2)CCN(Cc2cc(OC)c(O)cc2Cl)CC1` — outcome as called in the assay?
inactive

Lab log entry: `N#Cc1cccc(NC(=O)COC(=O)c2ccccc2C(=O)c2ccc(Cl)c([N+](=O)[O-])c2)c1` — outcome as called in the assay?
active

Lab log entry: CC(=O)NC(c1ccccc1)c1nc(-c2ccccc2C)cs1 (stereo unspecified) — outcome as called in the assay?
inactive

Lab log entry: `COc1cc2c(cc1OC)CN(CC(=O)Nc1ccc(F)cc1)CC2` — outcome as called in the assay?
inactive

Lab log entry: COc1ccc(C(O)C(O)(C(=O)OC(C)C)c2ccc(C)cc2)cc1 (stereo unspecified) — outcome as called in the assay?
inactive

Lab log entry: `CC(C)(O)C#Cc1ccc(CN2CCC(CO)(CCc3ccccc3)CC2)cc1` — outcome as called in the assay?
inactive

Lab log entry: `COC(=O)c1cc(NC(=O)Cc2ccccc2[N+](=O)[O-])ccc1Cl` — outcome as called in the assay?
inactive

Lab log entry: `O=C1[C@@H](c2ccccc2)[C@@H](c2ccccc2)N1c1cccnc1` — outcome as called in the assay?
active

Lab log entry: `CCN1CCC2(CC1)N=C(c1ccc(F)cc1)C(=S)N2C(=O)c1ccc(C)cc1` — outcome as called in the assay?
active

Lab log entry: `COc1cc(F)ccc1-c1cc(C(=O)NCC2CCCCC2)[nH]n1` — outcome as called in the assay?
inactive
